- Experimental system: T1, human LAMA4 LG1-3 fragment displayed on 293 cells (pDisplay) (human, UniProt Q16363 830-1430, limits assumed)
- T1 sequence: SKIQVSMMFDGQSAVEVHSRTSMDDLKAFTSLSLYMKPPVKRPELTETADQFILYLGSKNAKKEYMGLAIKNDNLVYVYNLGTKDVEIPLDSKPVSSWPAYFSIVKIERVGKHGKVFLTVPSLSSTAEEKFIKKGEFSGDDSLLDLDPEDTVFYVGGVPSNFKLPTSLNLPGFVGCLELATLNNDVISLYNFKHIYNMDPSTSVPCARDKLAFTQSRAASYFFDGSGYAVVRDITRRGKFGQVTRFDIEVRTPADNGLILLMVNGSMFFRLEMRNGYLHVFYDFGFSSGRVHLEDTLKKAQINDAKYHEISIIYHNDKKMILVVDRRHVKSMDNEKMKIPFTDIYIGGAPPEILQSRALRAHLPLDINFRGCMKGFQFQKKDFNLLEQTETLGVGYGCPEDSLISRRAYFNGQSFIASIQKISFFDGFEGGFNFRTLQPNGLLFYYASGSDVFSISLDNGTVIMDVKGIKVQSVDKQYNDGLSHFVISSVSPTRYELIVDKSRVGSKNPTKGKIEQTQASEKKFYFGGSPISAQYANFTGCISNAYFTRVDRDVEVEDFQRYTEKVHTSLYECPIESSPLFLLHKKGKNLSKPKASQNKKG
- Method: flow cytometry on 293 cells displaying LAMA4 fragments
Experimental endpoint: binding result

Past entries and their recorded results:
1. humanized 15F7 variant H1L2 (Hu15F7VHv1/Hu15F7VLv2) (antibody, V domains shown, also called VHv1/VLv2) VH: EVQLQQSGAEVKKPGSSVKLSCKASGYTFTSYGLSWVKQRAGQGLEWIGEIFPRSGNTYYNEKFKGKATLTADKSSSTAYMELRSLRSEDTAVYFCARGVRSPGAMDYWGQGTLVTVSS VL: DIQMTQSPSSLSASVGDRVTITCKASEDIYNRLAWYQQKPGNAPKLLISGATSLETGVPSRFSGSGSGKDFTLTISSLQPEDFATYYCQQYWSIPYTFGGGTKVEIKR = no binding
2. humanized 15F7 variant H2L1 (Hu15F7VHv2/Hu15F7VLv1) (antibody, V domains shown, also called VHv2/VLv1) VH: EVQLQQSGAEVKKPGSSVKLSCKASGYTFTSYGLSWVKQRPGQGLEWIGEIFPRSGNTYYNEKFKGKATITADKSSSTAYMELRSLRSEDTAVYFCARGVRSPGAMDYWGQGTLVTVSS VL: DIQMTQSSSSLSASVGDRVTITCKASEDIYNRLAWYQQKPGNAPRLLISGATSLETGVPSRFSGSGSGKDYTLTISSLQTEDFATYYCQQYWSIPYTFGGGTKLEIKR = no binding
3. chimeric 15F7 (antibody, V domains shown) VH: QVQLQQSGTELARPGAAVKLSCKASGYTFTSYGLSWVKQRAGQGLEWIGEIFPRSGNTYYNEKFKGKATLTADKSSSTAYMELRSLTSEDSAVYFCARGVRSPGAMDYWGQGTSVTVSS VL: DIQMTQSSSSFSVSLGDRVTITCKASEDIYNRLAWYQQKPGNAPRLLISGATSLETGVPSRFSGSGSGKDYTLSITSLQTEDVATYYCQQYWSIPYTFGGGTNLEIKR = no binding
4. humanized 15F7 variant H2L2 (Hu15F7VHv2/Hu15F7VLv2) (antibody, V domains shown, also called VHv2/VLv2) VH: EVQLQQSGAEVKKPGSSVKLSCKASGYTFTSYGLSWVKQRPGQGLEWIGEIFPRSGNTYYNEKFKGKATITADKSSSTAYMELRSLRSEDTAVYFCARGVRSPGAMDYWGQGTLVTVSS VL: DIQMTQSPSSLSASVGDRVTITCKASEDIYNRLAWYQQKPGNAPKLLISGATSLETGVPSRFSGSGSGKDFTLTISSLQPEDFATYYCQQYWSIPYTFGGGTKVEIKR = no binding

Turning to the following binder.
Reported binding result for humanized 15F7 variant H1L1 (Hu15F7VHv1/Hu15F7VLv1) (antibody, V domains shown, They are human, since it was captured by a goat anti-human Fc sensor; also called VHv1/VLv1) VH: EVQLQQSGAEVKKPGSSVKLSCKASGYTFTSYGLSWVKQRAGQGLEWIGEIFPRSGNTYYNEKFKGKATLTADKSSSTAYMELRSLRSEDTAVYFCARGVRSPGAMDYWGQGTLVTVSS VL: DIQMTQSSSSLSASVGDRVTITCKASEDIYNRLAWYQQKPGNAPRLLISGATSLETGVPSRFSGSGSGKDYTLTISSLQTEDFATYYCQQYWSIPYTFGGGTKLEIKR was no binding

All values here come from patent US20150259408A1.
